For each entry below, report its Kd value.
# target_or_test_system: monomeric alpha-synuclein (UniProt P37840 1-140)
# method_description: SPR, captured mAb
Numbers only, in nM.

ACI-8033-6403A4-Ab1 (antibody, V domains shown, mouse hybridoma mAb; VH/VL only; also called 6403A4A3) VH: EVQLVESGGGLVQPKGSLKLSCAASGFSFNTYAMNWVRQAPGKGLEWVARIRSKSNNYTTYYADSVKDRFTISRDDSESMLYLQMNNLKTEDTAMYYCVRTMDYWGQGTSVTVSS VL: QIVLTQSPAIMSASLGEEITLTCSASSSISYMHWYQQKSGTSPKLLIHSTFNLASGVPSRFSGSGSGTFYSLTISSVEAEDAADYYCHQWSSYYTFGGGTKLEIK = 96.4

Each binder below has a recorded value; state its Kd.
1. ACI-8033-21C8-Ab1 (antibody, V domains shown, mouse hybridoma mAb; VH/VL only; also called 917.21C8E4C8) VH: QVQLQQPGAELVKPGASVKMSCKASGYTFTSYWITWVRQRPGQGLDWIGDIYPGGGVTNYNEKFKTKATLTVDTSSSTAYMHLSSLTSEDSAVYFCATAQTTFAYWGQGTLVTVSA VL: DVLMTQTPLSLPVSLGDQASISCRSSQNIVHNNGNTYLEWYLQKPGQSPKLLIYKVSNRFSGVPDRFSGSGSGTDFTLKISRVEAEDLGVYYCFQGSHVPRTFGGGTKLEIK
2. ACI-7087-4125E6-Ab1 (antibody, V domains shown, mouse hybridoma mAb; VH/VL only; also called 4125E6D5) VH: QVQLQQPGTELVKPGASVRLSCKASGYAFTSYWMHWVKQRPGQGLEWIGNINPSNGGTNYNEKFKNKATLTVDKSSSTAYMQLSGLTSEDSAVYYCATGLHYWGQGTTLTVSS VL: DIQMTQSPSSLSASLGERVTLTCRASQDIGNYLNWLQQEPDGTIKRLIYATSSLDSGVPKRFSGSRSGSDYSLTISSLESEDFVDYYCLQFASSPLTFGPGTKLELK

Resp:
1.6
442
